Species on record: Rattus norvegicus
METHOD DESCRIPTION: Selectivity ratio of Ki for displacement of [3H]citalopram from in SERT Sprague-Dawley rat midbrain membranes to Ki for displacement of [3H]WIN 35428 from DAT in Sprague-Dawley rat striatum membranes
Ratio Ki less than 800 is 1; Ratio Ki greater than or equal to 800 is 0.

Confirm or reject: Ratio Ki of [O-][S+](CCN1CCN(C[C@H](O)Cc2ccccc2)CC1)C(c1ccc(F)cc1)c1ccc(F)cc1 (some centres undefined) lies strictly below 800
0

Confirm or reject: Ratio Ki of C[C@H](O)CN1CCN(CCSC(c2ccc(F)cc2)c2ccc(F)cc2)CC1 lies strictly below 800
1

Confirm or reject: Ratio Ki of O[C@H](Cc1ccccc1)CN1CCN(CCSC(c2ccc(F)cc2)c2ccc(F)cc2)CC1 lies strictly below 800
1

Confirm or reject: Ratio Ki of O[C@@H](Cc1ccccc1)CN1CCN(CCSC(c2ccc(F)cc2)c2ccc(F)cc2)CC1 lies strictly below 800
0

Confirm or reject: Ratio Ki of COc1ccc(CC(O)CN2CCN(CCSC(c3ccc(F)cc3)c3ccc(F)cc3)CC2)cc1 (centres undefined) lies strictly below 800
1

Confirm or reject: Ratio Ki of O=C(CCc1ccccc1)N1CCN(CCSC(c2ccc(F)cc2)c2ccc(F)cc2)CC1 lies strictly below 800
1

Confirm or reject: Ratio Ki of CC(O)CN1CCC2(CCN(CC[S+]([O-])C(c3ccc(F)cc3)c3ccc(F)cc3)CC2)C1 (centres undefined) lies strictly below 800
1

Confirm or reject: Ratio Ki of [O-][S+](CCN1CCN(CC(O)Cc2ccc(F)cc2)CC1)C(c1ccc(F)cc1)c1ccc(F)cc1 (centres undefined) lies strictly below 800
0

---

METHOD DESCRIPTION: Stability in mouse liver microsomes assessed as parent compound remaining at 10 uM after 60 mins in presence of NADPH by LC-MS/MS analysis
Type: ADME, Microsome
CONDITION SUMMARY: read-out: Stability
This listing pairs compounds with measured remaining at 1 h, 10 µM.

| COMPOUND | remaining at 1 h, 10 µM |
| --- | --- |
| CC(O)CN1[C@H](C)CN(CCSC(c2ccc(F)cc2)c2ccc(F)cc2)C[C@@H]1C (mixture of isomers) | < 10% |

Which remaining at 1 h, 10 µM reading was recorded for the compound C[C@@H]1CN(CCSC(c2ccc(F)cc2)c2ccc(F)cc2)C[C@H](C)N1C[C@@H](C)O ?
30%

Which remaining at 1 h, 10 µM reading was recorded for the compound C[C@@H]1CN(CC[S+]([O-])C(c2ccc(F)cc2)c2ccc(F)cc2)C[C@H](C)N1CC(O)Cc1ccccc1 (stereo partly specified) ?
< 10%

Which remaining at 1 h, 10 µM reading was recorded for the compound OC(CN1CCC2(CCN(CCSC(c3ccc(F)cc3)c3ccc(F)cc3)CC2)C1)c1ccccc1 (stereo unspecified) ?
30 to 44%

Which remaining at 1 h, 10 µM reading was recorded for the compound C[C@H](O)CN1[C@H](C)CN(CCSC(c2ccc(F)cc2)c2ccc(F)cc2)C[C@@H]1C ?
10%

Which remaining at 1 h, 10 µM reading was recorded for the compound CC(O)CN1[C@H](C)CN(CC[S+]([O-])C(c2ccc(F)cc2)c2ccc(F)cc2)C[C@@H]1C (stereo partly specified) ?
30 to 44%
